target_of_assay: CDK2 (Homo sapiens)
Construct: purchased Carna Company
measurement_description: CDK enzymology experiment in vitro, capillary mobility shift assay (MSA)
Type: biochemical
experimental_conditions: read-out: CDK2 (nM) inhibitory IC50

molecule: O=S(=O)(c1cnn(C2CCOCC2)c1)N1CCC(Nc2ncc(C(F)(F)F)c(O[C@H]3CCOC3)n2)CC1 [Compound 108]
IC50: 0.5 to 2.5 nM

molecule: N#Cc1cnc(NC2CCN(S(=O)(=O)c3ccc(N4CCC(O)CC4)cc3)CC2)nc1NC1CCCC1 [Compound 107]
IC50: < 0.5 nM

molecule: CN1CC[C@H](Oc2nc(NC3CCN(S(=O)(=O)c4cnn(C)c4)CC3)ncc2C#N)C1 [Compound 74]
IC50: 10 to 50 nM

molecule: O=S(=O)(c1ccc(N2CC3CNCC3C2)cc1)N1CCC(Nc2ncc(C(F)(F)F)c(O[C@H]3CCOC3)n2)CC1 (stereo partly shown) [Compound 191]
IC50: < 0.5 nM

molecule: Cn1cc(S(=O)(=O)N2CCC(Nc3ncc(C#N)c(N[C@H]4CCC[C@]4(C)O)n3)CC2)cn1 (single isomer, unassigned) [Example 21]
IC50: 2.5 to 10 nM

molecule: N#Cc1cnc(NC2CCN(S(=O)(=O)c3ccc(C4=CCNCC4)cc3)CC2)nc1NC1CCCC1(F)F (stereo not shown) [Compound 135]
IC50: 0.5 to 2.5 nM

molecule: C[C@@H]1COCCN1c1nc(NC2CCN(S(=O)(=O)c3cnn(C)c3)CC2)ncc1C#N [Compound 38]
IC50: 10 to 50 nM

* * *

Catalogue of IC50 values
target_of_assay: CDK1 (Homo sapiens)
Construct: purchased Carna Company
Sequence (P06493 whole entry): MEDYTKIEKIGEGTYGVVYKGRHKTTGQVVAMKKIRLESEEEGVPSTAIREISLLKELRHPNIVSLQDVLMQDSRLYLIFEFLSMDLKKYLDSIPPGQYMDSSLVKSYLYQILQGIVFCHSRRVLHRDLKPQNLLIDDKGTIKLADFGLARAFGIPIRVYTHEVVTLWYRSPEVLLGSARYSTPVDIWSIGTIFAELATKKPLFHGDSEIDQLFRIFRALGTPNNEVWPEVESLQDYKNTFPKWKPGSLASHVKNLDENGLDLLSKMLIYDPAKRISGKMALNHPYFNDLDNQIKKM
Sequence (P14635 whole entry partner): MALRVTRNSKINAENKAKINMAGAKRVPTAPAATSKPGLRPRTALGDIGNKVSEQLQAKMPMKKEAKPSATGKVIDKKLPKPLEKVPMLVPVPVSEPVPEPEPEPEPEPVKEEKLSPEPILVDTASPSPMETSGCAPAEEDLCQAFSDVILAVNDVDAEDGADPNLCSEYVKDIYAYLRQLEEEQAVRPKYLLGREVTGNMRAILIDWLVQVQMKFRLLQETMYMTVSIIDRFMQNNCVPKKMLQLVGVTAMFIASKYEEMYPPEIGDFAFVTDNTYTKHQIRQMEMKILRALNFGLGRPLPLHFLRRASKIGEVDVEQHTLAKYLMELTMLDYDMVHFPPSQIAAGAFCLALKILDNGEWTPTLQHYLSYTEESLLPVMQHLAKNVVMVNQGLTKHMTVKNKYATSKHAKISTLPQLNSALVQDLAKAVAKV
measurement_description: CDK enzymology experiment in vitro, capillary mobility shift assay (MSA)
Assay type: biochemical
experimental_conditions: read-out: CDK1 (nM) inhibitory IC50

molecule: Cc1cc(S(=O)(=O)N2CCC(Nc3ncc(C(F)(F)F)c(O[C@H]4CCOC4)n3)CC2)ccc1C1=CCNCC1
IC50: 10 to 50 nM

molecule: O=S(=O)(c1ccc([C@H]2CCNC2)cc1)N1CCC(Nc2ncc(C(F)(F)F)c(O[C@H]3CCOC3)n2)CC1 (single isomer, unassigned)
IC50: 2.5 to 10 nM

molecule: C[C@H]1CN(c2ccc(S(=O)(=O)N3CCC(Nc4ncc(C(F)(F)F)c(O[C@H]5CCOC5)n4)CC3)cc2)C[C@H](C)N1
IC50: 2.5 to 10 nM

molecule: Cn1cc(S(=O)(=O)N2CCC(Nc3ncc(C#N)c(NC4CCCC4)n3)CC2)cn1
IC50: 50 to 100 nM

molecule: C[C@@H]1CN(c2ccc(S(=O)(=O)N3CCC(Nc4ncc(C(F)(F)F)c(O[C@H]5CCOC5)n4)CC3)cn2)C[C@H](C)N1
IC50: 2.5 to 10 nM

molecule: CN(C)C1CCN(c2ccc(S(=O)(=O)N3CCC(Nc4ncc(C(F)(F)F)c(O[C@H]5CCOC5)n4)CC3)cc2)CC1
IC50: 2.5 to 10 nM
